# Tested on: HCC 2998
# measurement protocol: NCI tumour cell line growth inhibition, 48 h
Activity calls are given as the source filed them. No stated cut-off is given here; in the data, active = GI50 up to about 1.1 µM and inactive = higher.
Some molecules, each annotated with its measured GI50.

O=C1CCCN1CCC/N=c1/cc2n(-c3ccc(Cl)cc3)c3ccccc3nc-2cc1Nc1ccc(Cl)cc1 : 5.18 µM (inactive)

Exam item: Find the measured GI50 of C/C(=C\c1ccccc1)C(=O)NCc1ccc(C(=O)NCCc2c[nH]c3ccccc23)cc1 with HCC 2998 as test system.
Marked response: 16 µM (inactive)

Exam item: Look up and report measured GI50 (HCC 2998) for the following molecule: Fc1ccc(C(OCCN2CC3CCC(C2)N3CCCc2ccccc2)c2ccc(F)cc2)cc1
Marked response: 2.87 µM (inactive)

----------
# Tested on: SNB-19
# measurement protocol: NCI tumour cell line growth inhibition, 48 h
The source made the active and inactive calls. No stated cut-off is given here; in the data, active = GI50 up to about 1.1 µM and inactive = higher.
Listed here: items and their measured GI50.

A selection of reference data follows.
Cc1c(C2Cc3ccccc3N2)c2ccccc2n1C (stereo not given) : > 100 µM (inactive)
CC(=O)C(CN1CCCCC1)C(c1ccccc1)c1c(O)c2ccccc2oc1=O (stereo not given) : > 100 µM (inactive)
Cn1c(=O)oc2cc(C3CCC(=O)N3Cc3csc(-c4ccccc4)n3)ccc21 (stereo not given) : > 100 µM (inactive)
O=C(CSc1nnc(Cc2ccccc2)o1)Nc1ccc(Cl)cc1Cl : > 100 µM (inactive)
CC1(C)C2CCC3(C2)CS(=O)(=O)N2OC231 (stereo not given) : 34.4 µM (inactive)
COc1c(Sc2c(SCSc3cnc4ccccc4c3Sc3cnc4ccccc4c3OC)cnc3ccccc23)cnc2ccccc12 : 22.4 µM (inactive)
O=C(CC1(O)C(=O)Nc2c(Cl)ccc(Cl)c21)c1ccc(Cl)cc1 (stereo not given) : 67.8 µM (inactive)
C[C@]12OC[C@H](c3ccccc3)N1C(=O)C1[C@H]2CC12SCCS2 (stereo not given in full) : > 100 µM (inactive)

Exam item: Look up and report measured GI50 (SNB-19) for the following molecule: O=C1C(Cl)C2(CC(/C=C/c3ccccc3Cl)=NN2c2cccc(S(=O)(=O)O)c2)N1c1nc2ccccc2s1 (stereo not given)
Marked response: > 100 µM (inactive)

Exam item: Report value: GI50, system: SNB-19, molecule: COc1ccc(C(=O)/C=C/c2ccc(OCCCCCCCCCCOc3ccc(/C=C/C(=O)c4ccc(OC)cc4)cc3)cc2)cc1
Marked response: > 100 µM (inactive)

Exam item: Find GI50 for Cc1cccc(NC(=O)CSc2nnc(Cc3ccccc3)o2)c1 on SNB-19 and write it down.
Marked response: > 100 µM (inactive)

Exam item: Provide the reported GI50 (system: SNB-19) for Cc1cccc(NC(=O)CC(=O)N2N=C(N3c4ccccc4Sc4ccccc43)CC2c2ccccc2)c1 (stereo not given)
Marked response: > 100 µM (inactive)

----------
# Test system: SF-539
# measurement protocol: NCI tumour cell line growth inhibition, 48 h
Active and inactive are the calls of the source. No stated cut-off is given here; in the data, active = GI50 up to about 1.1 µM and inactive = higher.
Reply using exactly one outcome from YES for active, NO for inactive

CCCC(=O)Nc1cc(/C=C/C(=O)N2C[C@@H]3C[C@]34C2=CC(=O)c2[nH]cc(C)c24)n(C)c1 : YES

Exam item: Recorded test outcome, item O=C(CCNC(=O)OCc1ccccc1)OCCCNC(=O)OCc1ccccc1
Marked response: NO

----------
Measured GI50 by item
# Test system: SF-295
# measurement protocol: NCI tumour cell line growth inhibition, 48 h
Activity calls are given as the source filed them. Cut-off read from the data, not from the text of the source: active = GI50 up to about 1.1 µM and inactive = higher.

O=C(Cc1ccccc1)N/N=C(/c1nc2ccc([N+](=O)[O-])cc2nc1O)C(O)c1ccc(C(O)/C(=N/NC(=O)Cc2ccccc2)c2nc3ccc([N+](=O)[O-])cc3nc2O)cc1 (centres undefined) : 44.9 µM (inactive)
N#Cc1nc(C2OC(COC(=O)c3ccccc3)C(OC(=O)c3ccccc3)C2OC(=O)c2ccccc2)oc1N (centres undefined) : 39.2 µM (inactive)
C[C@H](N[C@H]1CCC[C@]1(O)C#Cc1ccc2c(c1)OCO2)c1ccccc1 : > 25 µM (inactive)

Proceed to the following item.
Exam item: Output GI50 of O=C1C2CC(Cl)C(SSC3CC4C(=O)N(SC(Cl)(Cl)C(Cl)Cl)C(=O)C4CC3Cl)CC2C(=O)N1SC(Cl)(Cl)C(Cl)Cl (centres undefined)
Marked response: 5.13 µM (inactive)
